Origin of the recorded values: the Human Domainome abundance scans (Beltran et al. 2025)

B1: Ankyrin-1, residues 1405 to 1484; numbered along this chain, P16157 (parent)
chain: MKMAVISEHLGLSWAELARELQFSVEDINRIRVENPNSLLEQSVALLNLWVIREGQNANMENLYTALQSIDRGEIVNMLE

Variants of: B1
Assay: abundance fitness (aPCA) (normalised: wild type 0, dead -1); higher = more abundant; growth selection in yeast, the domain comes from the species named
Settings: Homo sapiens
Listed below: abundance fitness values for each entry.
OBSERVED_PROPERTY: abundance fitness

1. L46T: -0.143
2. T65D: 0.009
3. Y64I: -0.302
4. V76C: -0.051
5. N59G: -0.151
6. R72C: -0.146
7. Q68N: 0.003
8. E26P: -0.371
9. N48D: 0.154
